# assay_target: MLK3 (Homo sapiens (Human), UniProt Q16584)
# Sequence (Q16584 whole entry, looked up): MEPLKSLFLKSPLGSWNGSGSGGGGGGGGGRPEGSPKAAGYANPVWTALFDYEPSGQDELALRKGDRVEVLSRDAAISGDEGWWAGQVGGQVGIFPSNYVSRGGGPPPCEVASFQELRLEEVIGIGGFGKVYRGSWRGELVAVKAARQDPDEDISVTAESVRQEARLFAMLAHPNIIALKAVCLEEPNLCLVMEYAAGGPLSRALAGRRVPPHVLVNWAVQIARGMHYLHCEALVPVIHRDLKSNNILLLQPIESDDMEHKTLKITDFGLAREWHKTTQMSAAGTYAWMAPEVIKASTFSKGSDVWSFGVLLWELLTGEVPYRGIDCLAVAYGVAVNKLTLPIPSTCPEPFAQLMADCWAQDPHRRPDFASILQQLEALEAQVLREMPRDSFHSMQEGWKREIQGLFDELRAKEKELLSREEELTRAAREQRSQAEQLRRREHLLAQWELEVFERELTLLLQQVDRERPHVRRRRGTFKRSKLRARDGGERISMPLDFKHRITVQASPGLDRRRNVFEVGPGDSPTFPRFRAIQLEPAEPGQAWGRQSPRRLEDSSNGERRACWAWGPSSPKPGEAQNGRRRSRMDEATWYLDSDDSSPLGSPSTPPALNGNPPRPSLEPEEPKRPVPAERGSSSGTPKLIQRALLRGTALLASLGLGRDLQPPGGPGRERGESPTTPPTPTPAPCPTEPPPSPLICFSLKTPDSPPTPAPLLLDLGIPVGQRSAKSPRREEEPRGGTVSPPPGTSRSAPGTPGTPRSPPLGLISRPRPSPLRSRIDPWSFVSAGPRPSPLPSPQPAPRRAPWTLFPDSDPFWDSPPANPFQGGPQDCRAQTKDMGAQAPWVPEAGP
# assay_protocol: Evaluation of inhibitory activity of enzyme units, MLK3 ([γ-33P]-ATP filter assay)
# condition: read-out: IC50(nM) MLK3
I'd appreciate it if you could supply IC50 values for the items below.
Dear colleague, please return just the value in nM, with no unit written.

Param item = `CCS(=O)(=O)N1CC[C@H](Nc2c(Br)cnc3[nH]c(-c4cc(C)n(-c5ccc(NS(C)(=O)=O)cc5C)c4C)nc23)C1` ; retrieve measured IC50.
7

Param item = `Cc1cc(-c2nc3ncc(Br)c(Nc4cccc(S(N)(=O)=O)c4)c3[nH]2)c(C)n1-c1ccc(OCCN2CCOCC2)cc1` ; retrieve measured IC50.
72

Param item = `CCN(CC)CCNC(=O)c1cccc(-n2c(C)cc(-c3nc4ncc(Br)c(N[C@H]5CCN(S(=O)(=O)CC)C5)c4[nH]3)c2C)c1` ; retrieve measured IC50.
122

Param item = `CCS(=O)(=O)N1CC[C@H](Nc2c(Br)cnc3[nH]c(-c4cc(C)n(-c5ccc(C(=O)NCCN6CCOCC6)cc5)c4C)nc23)C1` ; retrieve measured IC50.
18

Param item = `CCS(=O)(=O)N1CC[C@H](Nc2c(Cl)cnc3[nH]c(-c4cc(C)n(-c5cc(NS(C)(=O)=O)ccc5C)c4C)nc23)C1` ; retrieve measured IC50.
330

Param item = `CCS(=O)(=O)N1CC[C@H](Nc2c(Br)cnc3nc(-c4cc(C)n(-c5cccc(NC(=O)CN6CCN(C)CC6)c5C)c4C)[nH]c23)C1` ; retrieve measured IC50.
13
